Sourced from PubChem BioAssay (NCI)

Task for the reader: assign each of the following molecules its reported growth.
Test system: HCT-15 colon
Assay: NCI-60 one-dose screen, 48 h (100 = growth as untreated, 0 = no growth, -100 = all killed)
Settings: 10 µM unless noted
About 83,000 compounds went through this panel and 20% of them were active in at least one assay; those are over-represented in the sample as a whole. The source made the active and inactive calls. Rule for the calls: active = growth percent below 10; inactive = the rest.

Here are 4 molecules together with their reported answers.
INSERT INTO results (molecule, tgt, result) VALUES
  ('O=C(CSc1nc2ccccc2c(=O)[nH]1)NNC(=O)c1ccccc1Cl', 'HCT-15 colon', '107% (inactive)'),
  ('Cc1ccc(O)cc1Nc1nc(SCCN2CCOCC2)nc2c1cnn2CC(Cl)c1ccc(Br)cc1 (stereo not given)', 'HCT-15 colon', '0.154% (active)'),
  ('COC(=O)c1cccc(Oc2ccc(NC(=O)Nc3cc(C(F)(F)F)ccc3F)cc2)c1', 'HCT-15 colon', '62% (inactive)'),
  ('O=C(NNC(=S)NCCc1ccccc1)c1ccc(OCc2nc3ccc(Cl)cc3[nH]2)cc1', 'HCT-15 colon', '66.9% (inactive)');

Hi, could you look up growth for each item in my list?
1. CCC(=O)c1cc(C(=O)OC)c2ccc3c4ccccc4ccc3n12
2. NNc1ncnc2sc3c(c12)CCN(Cc1ccccc1)C3
3. O=C(CSc1nnc(-c2ccc(-c3nc4ccc(Cl)cc4[nH]3)cc2)o1)Nc1ccccc1
4. COc1c(B(O)O)cc(F)cc1-c1nc2ccc3[nH]ncc3c2c2c1COCC2
5. O=C(Cn1c(/C=C/c2ccc([N+](=O)[O-])cc2)nc2ccccc2c1=O)Nc1ccccc1
6. Cc1ccc(Nc2nnc(-c3c[nH]c4ccccc34)o2)c(C)c1

91.4% (inactive)
32.9% (inactive)
25.2% (inactive)
99.4% (inactive)
85.8% (inactive)
8.92% (active)

====

Tested on: LOX IMVI melanoma
Assay: NCI-60 one-dose screen, 48 h
Details: 10 µM unless noted
Compounds without any hit were thinned out: in the full panel of roughly 83,000, 20% have a hit. Calls of active or inactive are those of the source. How the source made its calls: active means growth percent below 10; inactive means the rest.
Parameter call: string, one of yes (1) (active), no (0) (inactive)

Recorded results for 5 compounds are shown here.
INSERT INTO measurements (compound, qualitative_label) VALUES
  ('N/C(=N\c1nc2ccccc2s1)NC(=O)Nc1ccccc1F', 'no (0)'),
  ('COC(=O)c1ccc(-c2c(-c3ccccc3)c(F)c3oc(C(=O)OC)c(N)c3c2-c2ccccc2)cc1', 'no (0)'),
  ('COc1ccccc1NC(=O)N/N=C/c1c[nH]c2ccccc12', 'yes (1)'),
  ('COc1cc(C2CC(c3ccc(F)cc3)=Nc3c(N)nc(N)nc3N2)ccc1Oc1nc(Nc2ccc(F)cc2)nc(N(C)C)n1 (centres undefined)', 'no (0)'),
  ('COc1cc(/C=C/C(=O)c2cnn(-c3cc(=O)[nH]c4ccccc34)c2C)cc(OC)c1OC', 'no (0)');

Which outcome did this test record for the compound CCN1C(=O)N(CC)C2NNC(Sc3c(C(=O)O)c4ccccc4n(CC(C)C)c3=O)=NC21 (centres undefined) ? no (0)

Please let me know the test result on file for `Cc1ccc(/C=C/C(=O)c2ccc(S(=O)(=O)NCCNc3nc(N(C)C)nc(N4CCOCC4)n3)cc2)cc1` . no (0)

Please state the recorded outcome for this compound: O=C(O)CC1S/C(=N/N=C/c2nc3ccccc3s2)NC1=O (centres undefined) no (0)

What did this assay record as the result for `C/C(=N\Nc1ccc(C(=O)O)cc1)c1cnn(-c2cc(=O)[nH]c3ccc(C)cc23)c1C` ? no (0)
